- System: Streptococcus pneumoniae
- procedureSummary: Minimum inhibitory concentration against Streptococcus pneumoniae - penicillin sensitive, strain STP64
- Format: functional
Each entry below lists one item and its recorded MIC value.
Quick reminder: number only, in µg/mL, skip the unit.

>>> recordedvalue("NC1CCN(c2c(F)cc3c(=O)c(C(=O)O)cn(C4CC4)c3c2Cl)C1 (stereo unspecified) [CLINAFLOXACIN]")
0.03
>>> recordedvalue("CC[C@@H]1CCN(c2c(F)cc3c(=O)c(C(=O)O)cn(C4CC4)c3c2OC)C[C@H]1N")
0.031
>>> recordedvalue("N[C@H]1CCCN(c2ccc3c(=O)c(C(=O)O)cn(C4CC4)c3c2Cl)C1")
0.12
>>> recordedvalue("CC[C@@H]1CCN(c2nc3c(cc2F)c(=O)c(C(=O)O)cn3C2CC2)C[C@H]1N")
4

Give recorded MIC with Streptococcus pneumoniae for the following compound: COc1c(N2CCC[C@H](N)C2)ccc2c(=O)c(C(=O)O)cn(C3CC3)c12 0.03

Next: CC[C@H]1CCN(c2ccc3c(=O)c(C(=O)O)cn(C4CC4)c3c2OC)C[C@H]1N 1

* * *

Listed next: entries and their corresponding IC50.
- experimentalSystem: DNA gyrase (Escherichia coli, UniProt P0AES4+P0AES6)
- procedureSummary: Inhibition of Wild Type DNA gyrase Supercoiling Activity in Escherichia coli
- Type: protein-complex assay
The figure you give is taken to be in µM; do not add the unit.

The examples below pair each entry with its known result.
>>> recordedvalue("CC[C@@H]1CCN(c2nc3c(cc2F)c(=O)c(C(=O)O)cn3C2CC2)C[C@H]1N")
68.4
>>> recordedvalue("CC[C@@H]1CCN(c2c(F)cc3c(=O)c(C(=O)O)cn(C4CC4)c3c2OC)C[C@H]1N")
7.93
>>> recordedvalue("COc1c(N2CCC[C@H](N)C2)c(F)cc2c(=O)c(C(=O)O)cn(C3CC3)c12")
4.26
>>> recordedvalue("COc1c(N2CCC[C@H](N)C2)ccc2c(=O)c(C(=O)O)cn(C3CC3)c12")
17.9
>>> recordedvalue("NC1CCN(c2c(F)cc3c(=O)c(C(=O)O)cn(C4CC4)c3c2Cl)C1 (stereo not given) [CLINAFLOXACIN]")
0.547
>>> recordedvalue("N[C@H]1CCCN(c2nc3c(cc2F)c(=O)c(C(=O)O)cn3C2CC2)C1")
4.62

Returns the measured IC50 for the input compound. Input: CC[C@@H]1CCN(c2c(F)cc3c(=O)c(C(=O)O)cn(C4CC4)c3c2F)C[C@H]1N 0.511

// next record CC[C@@H]1CCN(c2ccc3c(=O)c(C(=O)O)cn(C4CC4)c3c2Cl)C[C@H]1N 4.1

// same read-out, input: N[C@H]1CCCN(c2ccc3c(=O)c(C(=O)O)cn(C4CC4)c3c2Cl)C1 8.84

Subsequent entry: CC[C@@H]1CCN(c2ccc3c(=O)c(C(=O)O)cn(C4CC4)c3c2OC)C[C@H]1N 8.3

* * *

A collection of compounds and their measured pIC50
- experimentalSystem: DNA gyrase (Escherichia coli, UniProt P0AES4+P0AES6)
- procedureSummary: Inhibition of Quinolone resistant gyrase Supercoiling Activity in Escherichia coli
- Assay type: protein-complex assay
Here pIC50 is given on a logarithmic scale as minus log10 of the concentration in mol/L.

>>> recordedvalue("N[C@H]1CCCN(c2ccc3c(=O)c(C(=O)O)cn(C4CC4)c3c2Cl)C1")
4.45
>>> recordedvalue("NC1CCN(c2c(F)cc3c(=O)c(C(=O)O)cn(C4CC4)c3c2Cl)C1 (stereo not given)")
5.56
>>> recordedvalue("CC[C@@H]1CCN(c2c(F)cc3c(=O)c(C(=O)O)cn(C4CC4)c3c2OC)C[C@H]1N")
4.80
>>> recordedvalue("CC[C@@H]1CCN(c2c(F)cc3c(=O)c(C(=O)O)cn(C4CC4)c3c2F)C[C@H]1N")
4.49
>>> recordedvalue("COc1c(N2CCC[C@H](N)C2)ccc2c(=O)c(C(=O)O)cn(C3CC3)c12")
4.45
>>> recordedvalue("CC[C@@H]1CCN(c2ccc3c(=O)c(C(=O)O)cn(C4CC4)c3c2Cl)C[C@H]1N")
5.09
>>> recordedvalue("CC[C@@H]1CCN(c2ccc3c(=O)c(C(=O)O)cn(C4CC4)c3c2OC)C[C@H]1N")
4.48

Let us examine a further case.
Given the entry COc1c(N2CCC[C@H](N)C2)c(F)cc2c(=O)c(C(=O)O)cn(C3CC3)c12 , report its measured pIC50. 4.77

* * *

compounds and their reported log10 of MIC
- Tested on: Streptococcus pneumoniae
- procedureSummary: Minimum inhibitory concentration against Streptococcus pneumoniae - penicillin sensitive, strain STP64
- Type: functional
Kindly note that the scale is log10 and the underlying MIC is in µg/mL.

>>> recordedvalue("CC[C@@H]1CCN(c2cc3c(cc2F)c(=O)c(C(=O)O)cn3C2CC2)C[C@H]1N")
-0.12
>>> recordedvalue("COc1c(N2CC[C@@H]([C@@H](C)N)C2)c(F)cc2c(=O)c(C(=O)O)cn(C3CC3)c12")
-2.10

Item CC[C@@H]1CCN(c2c(F)cc3c(=O)c(C(=O)O)cn(C4CC4)c3c2F)C[C@H]1N has what recorded log10 of MIC? -1.64

Now the same for O=C(O)c1cn(C2CC2)c2cc(N3CCNCC3)c(F)cc2c1=O -0.60

And the next one, N[C@H]1CCCN(c2nc3c(cc2F)c(=O)c(C(=O)O)cn3C2CC2)C1 ? 0.60

Note, next up: COc1c(N2CCC[C@H](N)C2)c(F)cc2c(=O)c(C(=O)O)cn(C3CC3)c12 -0.90

Follow-up item: COc1c(N2CCNC(C)C2)c(F)cc2c(=O)c(C(=O)O)cn(C3CC3)c12 (stereo not given) -0.92

O=C(O)c1cn(C2CC2)c2c(Cl)c(N3CCNCC3)ccc2c1=O ? 0.60

src = ChEMBL document CHEMBL1145050
